Values from patent US20160200799A1

- TGT: Influenza virus A/Panama/2007/1999 (H3N2) (Influenza A virus A/Panama/2007/1999 (H3N2))
- PROTOCOL_NOTES: ELISA on coated viral particles
OBSERVATION_TYPE: Binding activity (absorbance at 492 nm)

Some binders with recorded Binding activity (absorbance at 492 nm):
binder="Group 2 representative clone F082-220, Fab-cp3-type antibody (Fab, V domains shown) VH: QVQLVQSGAEVKKPGSSVKVSCKASGGIFRSNAVSWVRQAPGQGLEWMGGIIAIFGTPKYAQKFQGRVTITADESTSTVYMELSGLRYEDTAVYYCARGPNYYESYFDYWGQGTLVTVSS VL: DIVMTQSPPSLSASVGDRVTITCRASQGISNYLAWYQQKPGKAPKLLIFGASTLHSGVSSRFSGSGSGPDFTLTISSLQPEDAATYYCQKYHSAPLTFGGGTKVEMK" observation_type="Binding activity (absorbance at 492 nm)" reported_measurement=0.16
binder="Group 51 representative clone F083-302, Fab-cp3-type antibody (Fab, V domains shown) VH: QVQLVQSGAEVKKPGSSVKVSCEASGATFSSNAFSWVRQAPGQGPEWMGGIITMFRKAEYAQKFQGRVTITAGELGSTAYMEVRSLTFEDTAVYYCARHSGYHLIGYFDSWGQGTLVTVSS VL: QSVLTQPPSVSAAPGQKVTISCSGTTSNIGNNYVSWYQQLPGAAPKLLIYDNNKRPSGIPDRFSGSKSDTSATLGITGLQTGDEADYYCGTWVSSLSVWVFGGGTKLTVLG" observation_type="Binding activity (absorbance at 492 nm)" reported_measurement=0.23
binder="Group 35 representative clone F082-117, Fab-cp3-type antibody (Fab, V domains shown) VH: QVQLVQSGSEVKKPGSSVKVSCKSSGGILRRSAISWVRQAPGQGLEWMGGILAIFGTTKYAQKFQGRITITADESTNTVHMELSSLRPDDTAVYYCAGGPHYYVSYFDSWGQGTLVTVSS VL: DIQMTQSPATLSLSPGERATLSCRASQSVRSYLAWYQQKPGQAPRLLIYDASNRATGIPARFSGSGSGTEFTLTISRLEPEDFAVYYCQQRSNWLFTFGPGTKVDFK" observation_type="Binding activity (absorbance at 492 nm)" reported_measurement=0.15
binder="Group 80 representative clone F083-373, Fab-cp3-type antibody (Fab, V domains shown) VH: QVQLVQSGADVKKPGSSVRVSCKASGRTFGNYAISWVRQAPGQGLEWMGGITPIFGAANYAQKFQGRVTISADLSTTMVYMDLSSLRSDDTAFYYCAGHPTYYYGSPMDYWGQGTLVTVSS VL: EIVLTQSPSSLSASVGDRVTITCRASQSIATYLNWYQQKPGKAPNLLIYAASNLQSGVPSRFSGSGSGTDFTLTISSLQPEDFATYVCLQSYSATLTFGGGTKVEIK" observation_type="Binding activity (absorbance at 492 nm)" reported_measurement=0.13

Consider the additional binder presented here.
Please report the measured Binding activity (absorbance at 492 nm) for Group 57 representative clone F083-103, Fab-cp3-type antibody (Fab, V domains shown) VH: QVQLQQSGADVKKAGSSVKVSCKASGRTFGNYAISWVRQAPGQGLEWMGGITPIFGAANYAQKFQGRVTISADLSTRMVYMDLSSLRSDDTAFYYCAGHPTYHYGSAMDYWGQGTLVTVSS VL: QSVLTQPPSVSAAPGQKVTITCSGSSSNIGNNYVSWYQQLPGTAPKLLISEGSNRPSGIPDRFSGSKSGTSATLGITGLQTGDEATYYCATWDDSLSVVLFGGGTRLTVLS
0.16
